# MEASURED ON: PPARδ (Homo sapiens, UniProt Q03181)
# Sequence (Q03181 211-439 limits assumed): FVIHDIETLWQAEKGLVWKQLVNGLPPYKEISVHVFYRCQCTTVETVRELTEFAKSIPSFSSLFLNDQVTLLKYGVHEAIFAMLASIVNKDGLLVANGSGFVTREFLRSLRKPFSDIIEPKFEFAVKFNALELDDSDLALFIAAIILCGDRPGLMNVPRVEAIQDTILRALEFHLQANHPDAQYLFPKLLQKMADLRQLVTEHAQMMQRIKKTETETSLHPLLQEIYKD
pKi: −log10 of the molar value.
VALUE KIND: pKi

CCCCCc1cc(CCCCC)cc(CC(=O)[O-])c1.[Na+] | 5.50

----------
# MEASURED ON: PPARγ (Homo sapiens)
# Construct: PPARγ (S176–Y477)
# Sequence (P37231 204-505): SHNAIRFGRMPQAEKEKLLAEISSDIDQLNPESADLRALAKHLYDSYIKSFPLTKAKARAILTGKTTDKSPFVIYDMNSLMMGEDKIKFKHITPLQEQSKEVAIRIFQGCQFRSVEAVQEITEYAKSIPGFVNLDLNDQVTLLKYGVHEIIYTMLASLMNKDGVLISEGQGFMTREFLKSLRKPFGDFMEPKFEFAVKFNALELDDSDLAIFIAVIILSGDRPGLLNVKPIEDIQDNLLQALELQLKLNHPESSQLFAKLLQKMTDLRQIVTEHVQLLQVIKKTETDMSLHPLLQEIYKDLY
# METHOD: Cell-based GAL4 transactivation assay in HEK293 cells, PPARγ LBD
# APPLIED CONDITIONS: HEK293, 24 h; read-out: EC50, PPARγ transcriptional activity
pEC50: −log10 of the molar value.
VALUE KIND: pEC50

CCCCCc1cc(CCCCC)cc(CC(=O)[O-])c1.[Na+] [PBI-4547] | 5.44

----------
# MEASURED ON: GPR84 (Homo sapiens)
# Construct: expressed in transfected cells; host or cells: HEK293
# Sequence (Q9NQS5 whole entry, species assumed): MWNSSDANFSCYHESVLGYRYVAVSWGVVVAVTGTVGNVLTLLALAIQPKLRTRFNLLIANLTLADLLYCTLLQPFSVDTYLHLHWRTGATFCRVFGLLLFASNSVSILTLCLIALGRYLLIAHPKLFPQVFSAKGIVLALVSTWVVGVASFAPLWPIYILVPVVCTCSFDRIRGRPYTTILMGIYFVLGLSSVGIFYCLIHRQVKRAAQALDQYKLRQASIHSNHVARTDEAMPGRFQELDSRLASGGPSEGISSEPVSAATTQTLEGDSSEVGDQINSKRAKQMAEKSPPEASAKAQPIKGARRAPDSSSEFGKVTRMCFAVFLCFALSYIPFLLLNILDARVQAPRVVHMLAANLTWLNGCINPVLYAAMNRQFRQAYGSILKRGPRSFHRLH
# METHOD: BRET Gαi2 activation biosensor in HEK293 cells transfected with GPR84
# Assay type: cell-based
# APPLIED CONDITIONS: co-treated with 125 mM sodium decanoate and increasing concentrations of PBI-4547, read-out: IC50, inhibition of GPR84/Gαi2 activation
pIC50: −log10 of the molar value.
VALUE KIND: pIC50

CCCCCc1cc(CCCCC)cc(CC(=O)[O-])c1.[Na+] [PBI-4547] | 4.77

----------
# MEASURED ON: GPR120 (Homo sapiens, UniProt Q5NUL3)
# Sequence (Q5NUL3 whole entry): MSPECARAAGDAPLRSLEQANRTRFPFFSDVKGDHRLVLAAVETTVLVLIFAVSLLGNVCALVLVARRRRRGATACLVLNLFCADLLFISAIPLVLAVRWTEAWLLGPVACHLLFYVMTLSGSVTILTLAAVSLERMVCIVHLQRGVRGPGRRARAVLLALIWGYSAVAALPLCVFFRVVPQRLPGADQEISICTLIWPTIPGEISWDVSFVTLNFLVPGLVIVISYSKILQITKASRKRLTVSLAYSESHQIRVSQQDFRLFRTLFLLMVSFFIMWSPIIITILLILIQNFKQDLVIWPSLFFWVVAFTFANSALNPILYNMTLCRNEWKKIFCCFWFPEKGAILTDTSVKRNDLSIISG
# METHOD: BRET β-arrestin-2 recruitment to GPR120-GFP10 in HEK293 cells
# APPLIED CONDITIONS: Rluc8-β-arrestin-2 / GPR120-GFP10
pEC50: −log10 of the molar value.
VALUE KIND: pEC50

CCCCCc1cc(CCCCC)cc(CC(=O)[O-])c1.[Na+] | 4.32

----------
# MEASURED ON: GPR40 (Homo sapiens)
# Construct: expressed in transfected cells; host or cells: HEK293
# Sequence (O14842 whole entry, species assumed): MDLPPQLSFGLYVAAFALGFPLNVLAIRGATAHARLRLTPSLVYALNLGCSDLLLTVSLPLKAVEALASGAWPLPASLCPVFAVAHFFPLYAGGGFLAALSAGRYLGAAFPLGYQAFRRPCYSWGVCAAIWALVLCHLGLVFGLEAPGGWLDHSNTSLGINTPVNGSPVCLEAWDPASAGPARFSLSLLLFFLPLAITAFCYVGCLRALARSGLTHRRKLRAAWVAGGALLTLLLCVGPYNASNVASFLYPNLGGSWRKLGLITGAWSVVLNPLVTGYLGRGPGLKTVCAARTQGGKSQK
# METHOD: BRET Gαq / Gαi2 activation biosensors in HEK293 cells transfected with GPR40
# Assay type: cell-based
# APPLIED CONDITIONS: Gαi2 biosensor, read-out: EC50, GPR40 Gαi2 biosensor BRET signal decrease
VALUE KIND: EC50

CCCCCc1cc(CCCCC)cc(CC(=O)[O-])c1.[Na+] [PBI-4547] | 27 µM
